Field: TGI. Provide a value for each of the compounds that follow.
tested on: RPMI-8226 leukemia; assay: NCI tumour cell line growth inhibition, 48 h

{"columns": ["COMPOUND", "TGI"],
 "data": [
  ["Cc1ccc2c(=O)cc(-c3ccc(C)s3)[nH]c2n1", "2.57 µM"],
  ["O=C1/C(=C/c2ccccc2[N+](=O)[O-])N=C(c2ccccc2)N1c1nc2ccccc2s1", "61.6 µM"],
  ["CO[C@H]1CC(O[C@@H]2/C(C)=C/C[C@@H]3C[C@@H](C[C@]4(CC[C@H](C)[C@@H](C5CCCCC5)O4)O3)OC(=O)[C@@H]3C=C(C)/C(=N/O)[C@H]4OC/C(=C\\C=C\\[C@@H]2C)[C@]43O)O[C@@H](C)C1O (some centres not stated)", "2.72 µM"]
]}

Please give TGI, item by item, for the list that follows.
1. COc1cccc(C2SC(N)=Nc3c2c(C)nn3C(=O)Cc2ccccc2)c1 (configuration not stated)
2. COC(=O)C1=CC2C=CC(C1C(=O)OC)C1C(C(=O)OC)=C(C(=O)OC)C(C(=O)OC)=C(C(=O)OC)C21OC (configuration not stated)
3. C=CCc1c(O)c2nsnc2c2nsnc12
4. NS(=O)(=O)c1cc(C(=O)O)c(O)c2ccccc12
5. Cc1cc(C)c(-c2c(N)cc(Br)cc2Br)c(N)c1

["> 100 µM", "> 100 µM", "> 10 µM", "> 100 µM", "19.6 µM"]

Please give TGI, item by item, for the list that follows.
1. COc1cc(OC)cc(-c2cc(=O)c3cc4c(cc3[nH]2)OCO4)c1
2. c1ccc(CNCCN(CCNCc2ccccn2)Cc2ccc3ccccc3c2)nc1
3. Nc1c(Cl)ncnc1NCCCCCCCCCCCCNc1ncnc(Cl)c1N

> 58.8 µM
6.65 µM
5.74 µM

###

tested on: K-562 leukemia; assay: NCI tumour cell line growth inhibition, 48 h; in the data active = GI50 below about 0.43 µM; inactive = the rest
Permitted responses: active, inactive

Recorded results for 2 compounds are shown here.
{"columns": ["COMPOUND", "SYSTEM_TESTED", "CAT"],
 "data": [
  ["CCN(Cc1cccc(Cl)c1)c1ccc(CO)c(Cl)c1", "K-562 leukemia", "inactive"],
  ["CO[C@H]1CC(O[C@@H]2/C(C)=C/C[C@@H]3C[C@@H](C[C@]4(CC[C@H](C)[C@@H](C5CCCCC5)O4)O3)OC(=O)[C@@H]3C=C(C)/C(=N/O)[C@H]4OC/C(=C\\C=C\\[C@@H]2C)[C@]43O)O[C@@H](C)C1O (some centres undefined)", "K-562 leukemia", "inactive"]
]}

Which outcome was entered for the compound N/N=C(/Cc1nc2ccc(C(=O)c3ccccc3)cc2[nH]c1=O)C(=O)Nc1ccc([N+](=O)[O-])cc1[N+](=O)[O-] in this test? inactive

Which outcome was entered for the compound Cc1cc(-c2cc(O)ccc2Cl)cc2nnc(Nc3ccc(OCCN4CCCC4)cc3)nc12 in this test? active

###

system: HL-60(TB) leukemia; assay: NCI tumour cell line growth inhibition, 48 h; in the data active = GI50 below about 0.43 µM; inactive = the rest
Permitted responses: label 1 = active, label 0 = inactive

{"columns": ["COMPOUND", "CAT"],
 "data": [
  ["CO[C@H]1CC(O[C@@H]2/C(C)=C/C[C@@H]3C[C@@H](C[C@]4(CC[C@H](C)[C@@H](C5CCCCC5)O4)O3)OC(=O)[C@@H]3C=C(C)/C(=N/O)[C@H]4OC/C(=C\\C=C\\[C@@H]2C)[C@]43O)O[C@@H](C)C1O (some centres not stated)", "label 0"],
  ["Cc1cc(Nc2nc(N[C@@H](C)c3ncc(F)cn3)ncc2Cl)n[nH]1", "label 0"],
  ["C/C(=N\\NC(=O)c1ccccc1O)c1cccc(/C(C)=N/NC(=O)c2ccccc2O)n1.O=S(=O)([O-])[O-].[Fe+2]", "label 1"]
]}

Which outcome was entered for the compound CC(=O)C1=C(O)C=C2Oc3c(C(=O)/C=C/c4cc(Cl)cc(Cl)c4)c(O)c(C)c(O)c3[C@]2(C)C1=O in this test? label 1

Which outcome was entered for the compound C=CCC(N[C@@H](CO)c1ccccc1)c1cn(C(=O)OCC)c2ccccc12 (some centres not stated) in this test? label 0

Which outcome was entered for the compound CCNC(=O)Oc1ccc(/C(=C(/C)Cc2ccc(OC)cc2)c2ccc(OCCN(CC)CC)cc2)cc1 in this test? label 0

Which outcome was entered for the compound CC1NC(=O)C2=C1C(=O)NC(=O)C2 (configuration not stated) in this test? label 0

Which outcome was entered for the compound CCN(Cc1cccc(Cl)c1)c1ccc(CO)c(Cl)c1 in this test? label 0

Which outcome was entered for the compound Cc1cc(-c2cc(O)ccc2Cl)cc2nnc(Nc3ccc(OCCN4CCCC4)cc3)nc12 in this test? label 1

Which outcome was entered for the compound N#Cc1cnc(Nc2cc(NC[C@H]3CNCCO3)c(C(F)(F)F)cn2)cn1 in this test? label 0

Which outcome was entered for the compound CC(=O)[C@H]1CCC2[C@@H]3CC=C4C[C@@H]([O-])CC[C@]4(C)C3CC[C@@]21C.CC(=O)[C@H]1CCC2[C@@H]3CC=C4C[C@@H]([O-])CC[C@]4(C)C3CC[C@@]21C.CC(=O)[CH-]C(=O)c1ccccc1.CC(=O)[CH-]C(=O)c1ccccc1.Cl.[Ti+4] (some centres not stated) in this test? label 0

Which outcome was entered for the compound C=CCC(N[C@H](CO)c1ccccc1)c1cn(Cc2ccccc2Cl)c(=O)n(Cc2ccccc2Cl)c1=O (some centres not stated) in this test? label 0

###

test system: U251 CNS
Permitted responses: 1 (active), 0 (inactive)

Recorded results for 4 molecules are shown here.
{"columns": ["MOLECULE", "CAT"],
 "data": [
  ["CC(=O)C1=C(O)C=C2Oc3c(C(=O)/C=C/c4cc(Cl)cc(Cl)c4)c(O)c(C)c(O)c3[C@]2(C)C1=O", 1],
  ["COc1cc(C2c3cc4c(cc3C(OC(=O)C[n+]3ccccc3)C3COC(=O)C23)OCO4)cc(OC)c1OC (stereo unspecified)", 1],
  ["Cn1c2c(c3c(Cl)nncc31)Cc1ccccc1-2", 0],
  ["O=C(NCC1CCCO1)c1ccc(NC2=C(Cl)C(=O)N(Cc3ccccc3)C2=O)cc1 (stereo unspecified)", 0]
]}

Which outcome was entered for the molecule O=C1/C(=C/c2ccc(Cl)cc2)CNC/C1=C\c1ccc(Cl)cc1 in this test? 0

Which outcome was entered for the molecule O=C(O)C1[O][Sb][O]C(C(=O)O)C1O (stereo unspecified) in this test? 0

Which outcome was entered for the molecule CC(=O)[CH-]C(=O)c1ccccc1.CC(=O)[CH-]C(=O)c1ccccc1.CC(=O)[CH-]C(=O)c1ccccc1.[Nd+3].[OH3+] in this test? 0

###

system: HCT-116 colon; test: NCI tumour cell line growth inhibition, 48 h
Field: TGI. Provide a value for each of the molecules that follow.
One number for each entry, in µM.

{"columns": ["MOLECULE", "TEST_READOUT", "MEASUREMENT_UNIT", "ASSAY_VALUE"],
 "data": [
  ["CCOC(=O)/C=C(/C(=O)OCC)n1ccc(=O)n(Cc2cnnn2COCCOC(C)=O)c1=O", "TGI", "µM", 45.8],
  ["COC1(OC)C2(Cl)C(Cl)=C(Cl)C1(Cl)C1C2C2CC1(C(=O)O)c1ccccc12 (stereo not drawn)", "TGI", "µM", 33.8],
  ["CCCCCCCCCC[C@H](O)[C@H](O)CC[C@@H](O)[C@H]1CC[C@@H]([C@H]2CC[C@H](CCCCCCC[C@@H](O)CC3=C[C@H](C)OC3=O)O2)O1", "TGI", "µM", 61.6],
  ["O=C1c2ccccc2C2CCC1c1ccccc12 (stereo not drawn)", "TGI", "µM", 46.4],
  ["C=C(C(=O)OC)[C@@H]1C[C@@H](OC(C)=O)C2=C[C@H](C[C@@]3(C)O[C@@H]3C3=CC(C)=C(O3)[C@H]1OC(C)=O)OC2=O", "TGI", "µM", 24.3]
]}

Please give TGI, item by item, for the list that follows.
1. CCCCCCCCCCCCOC1C(CNC(=O)C2OC3OC(C)(C)OC3C2NC(=O)CN2CCN(c3ccc(OC)cc3)CC2)OC2OC(C)(C)OC21 (stereo not drawn)
2. CCNC(=O)Oc1ccc(/C(=C(/C)Cc2ccc(OC)cc2)c2ccc(OCCN(CC)CC)cc2)cc1
3. O=C1/C(=C/c2ccccc2[N+](=O)[O-])N=C(c2ccccc2)N1c1nc2ccccc2s1

[18.5, 3.11, 38.5]

Please give TGI, item by item, for the list that follows.
1. Oc1c(Cl)cc(Cl)c2ccc(Cn3cc(-c4ccc(C(F)(F)F)cc4)nn3)nc12
2. Cn1cc(-c2cnn3c(N)c(Br)c(C4CCCNC4)nc23)cn1 (stereo not drawn)
3. O=c1c(Cl)c(Cl)cnn1CCCl

1: 2.57; 2: 24.6; 3: 17

Please give TGI, item by item, for the list that follows.
1. Cn1cc2ccccc2c1-c1nc(F)nc(Oc2ccc3c(c2)CC[C@@H]2C3CC[C@@]3(C)C2C[C@H](O)[C@@H]3O)n1 (stereo partly drawn)
2. CCC(C)[C@@H](Nc1c(O)c2c(c(O)c1Cl)C(=O)C=CC2=O)C(=O)OC (stereo partly drawn)
3. COc1cccc(Nc2nc3ccccc3c3occc23)c1
4. COC(=O)/C=C1/OC(c2ccccc2)=C(C)C1=O
5. COc1c(C(=O)NCCN(CCNC(=O)c2cccc(-c3cccc(C(=O)N(C)C)c3OC)c2OC)CCNC(=O)c2cccc(-c3cccc(C(=O)N(C)C)c3OC)c2OC)cccc1-c1cccc(C(=O)N(C)C)c1OC
6. CN(CCCNC(=O)c1cn(C)c2c1Cc1ccccc1-2)CCCNC(=O)c1cn(C)c2c1Cc1ccccc1-2
7. Cc1cn(Cc2ccc(C34CC5CC(CC(C5)C3)C4)c(O)c2)c(=O)[nH]c1=O

1. 28.1
2. 6.94
3. 34.4
4. 15.4
5. 41.4
6. 22.2
7. 22.5

Recall and state the measured TGI for O=C(N/N=C/c1cc(Br)cc(Br)c1[O-])c1ccccc1O.O=C(N/N=C/c1cc(Br)cc(Br)c1[O-])c1ccccc1O.[Zn+2] . 13
